Entries annotated with measured growth inhibition
- Procedure Details: NCI Yeast Anticancer Drug Screen. Data for the cln2 rad14 strain (AID 165);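 note: 0% = growth equal to vehicle treated cultures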
- Cond: S. cerevisiae cln2 rad14 strain, at 50.0 µM, stronger effect = higher value
- Method: Growth inhibition of yeast strains with defined genetic alterations is measured as a screen for potential anti-cancer activity. Selected strains with alterations in DNA damage repair or cell cycle control were exposed to compounds and growth inhibition was measured relative to vehicle treated controls. The strain used in this assay is cln2 rad14
This is part of a sample that, as a whole, favours compounds with a hit. Of some 79,000 tested, about 15% had one in any assay.
Field format: number, assumed %, no unit text.

These recorded examples may help you get a feel for the data.
CCOC(=O)NC(NC(=O)OCC)c1ccc2c(c1)OCO2	-11.8
COc1ccc(CCCCl)c(C2=NCCc3cc(OC)c(OC)cc32)c1	-6.1
O=c1[nH]nc(-c2ccccc2)n1/N=C\c1ccccc1	-26.1

Next:
Query: growth inhibition; subject: COc1ccc(CCC(C)(O)c2ccccc2)cc1 (centres undefined)
-1.05
